Data credit: patent US9394549B2

Test: Solubility of terephthalic acid salts in water
Type: physicochemical
Details: 30 °C, water, thermodynamic from solid, in water at 30° C., rounded values of the summary; read-out: solubility in water at 30° C.
quantity kind: solubility

For O=C([O-])c1ccc(C(=O)[O-])cc1.[Na+].[Na+] [Disodium terephthalate, disodium terephthalate, reference compound] , what is its reported solubility?
~630 mM

For O=C([O-])c1ccc(C(=O)[O-])cc1.[K+].[K+] [Dipotassium terephthalate, dipotassium terephthalate] , what is its reported solubility?
~1000 mM

For N.N.O=C(O)c1ccc(C(=O)O)cc1 [Diammonium terephthalate, diammonium terephthalate, reference compound] , what is its reported solubility?
~510 mM

###

System: recombinant Escherichia coli strain M7032 (pUXPEaLT_tphA2A3A1_tpaK)
Assay: Production of TPA-DHD from terephthalic acid salt in jar fermentor culture
Assay type: cell-based
Settings: 0.6 M salt solution as raw material, 48 hours after the start of the main culture
Assignment: determine reported TPA-DHD for the given molecules.
Write the answer as a number in g/L, unit excluded.

For N.O=C([O-])c1ccc(C(=O)O)cc1.[K+] [1-potassium 4-ammonium terephthalate] , what is its reported TPA-DHD?
12.2

For O=C([O-])c1ccc(C(=O)[O-])cc1.[K+].[Na+] [1-potassium 4-sodium terephthalate] , what is its reported TPA-DHD?
10.7

For O=C([O-])c1ccc(C(=O)[O-])cc1.[Na+].[Na+] [Disodium terephthalate, disodium terephthalate, reference compound] , what is its reported TPA-DHD?
9.7

For O=C([O-])c1ccc(C(=O)[O-])cc1.[K+].[K+] [Dipotassium terephthalate, dipotassium terephthalate] , what is its reported TPA-DHD?
11.3

###

Tested on: gallic acid-producing Escherichia coli strain M7032 (pUXPEaLT_HFM145_tphA2A3BA1_tpaK)
Experiment: Production of gallic acid from terephthalic acid salt in jar fermentor culture
Type: cell-based
Details: 0.6 M salt solution as raw material, 48 hours after the start of the main culture
Assignment: determine reported Gallic acid for the given compounds.
Write the answer as a number in g/L, unit excluded.

Provide the documented Gallic acid with gallic acid-producing Escherichia coli strain M7032 (pUXPEaLT_HFM145_tphA2A3BA1_tpaK) as the system for N.O=C([O-])c1ccc(C(=O)O)cc1.[K+] [1-potassium 4-ammonium terephthalate]
8.5

Provide the documented Gallic acid with gallic acid-producing Escherichia coli strain M7032 (pUXPEaLT_HFM145_tphA2A3BA1_tpaK) as the system for O=C([O-])c1ccc(C(=O)[O-])cc1.[Na+].[Na+] [Disodium terephthalate, disodium terephthalate, reference compound]
7.6

Provide the documented Gallic acid with gallic acid-producing Escherichia coli strain M7032 (pUXPEaLT_HFM145_tphA2A3BA1_tpaK) as the system for O=C([O-])c1ccc(C(=O)[O-])cc1.[K+].[K+] [Dipotassium terephthalate, dipotassium terephthalate]
8.6

Provide the documented Gallic acid with gallic acid-producing Escherichia coli strain M7032 (pUXPEaLT_HFM145_tphA2A3BA1_tpaK) as the system for O=C([O-])c1ccc(C(=O)[O-])cc1.[K+].[Na+] [1-potassium 4-sodium terephthalate]
8.4

###

Assignment: determine reported Ratio of the capacity in production (gallic acid) for the given compounds.
Test system: gallic acid-producing Escherichia coli strain M7032 (pUXPEaLT_HFM145_tphA2A3BA1_tpaK)
Assay: Production of gallic acid from terephthalic acid salt in jar fermentor culture
Assay type: cell-based
Settings: 48 hours, disodium terephthalate as 100%
Number first, unit second: that is the form wanted.

Provide the documented Ratio of the capacity in production (gallic acid) with gallic acid-producing Escherichia coli strain M7032 (pUXPEaLT_HFM145_tphA2A3BA1_tpaK) as the system for O=C([O-])c1ccc(C(=O)[O-])cc1.[K+].[K+] [Dipotassium terephthalate, dipotassium terephthalate]
113%

Provide the documented Ratio of the capacity in production (gallic acid) with gallic acid-producing Escherichia coli strain M7032 (pUXPEaLT_HFM145_tphA2A3BA1_tpaK) as the system for O=C([O-])c1ccc(C(=O)[O-])cc1.[K+].[Na+] [1-potassium 4-sodium terephthalate]
111%

Provide the documented Ratio of the capacity in production (gallic acid) with gallic acid-producing Escherichia coli strain M7032 (pUXPEaLT_HFM145_tphA2A3BA1_tpaK) as the system for N.O=C([O-])c1ccc(C(=O)O)cc1.[K+] [1-potassium 4-ammonium terephthalate]
112%

Provide the documented Ratio of the capacity in production (gallic acid) with gallic acid-producing Escherichia coli strain M7032 (pUXPEaLT_HFM145_tphA2A3BA1_tpaK) as the system for O=C([O-])c1ccc(C(=O)[O-])cc1.[Na+].[Na+] [Disodium terephthalate, disodium terephthalate, reference compound]
100%
